test system: CD2F1 mice, L1210 leukemia ip, survival T/C; assay: NCI In Vivo Anticancer Drug Screen. Data for tumor model L1210 Leukemia (intraperitoneal) in CD2F1 (CDF1) mice; conditions: endpoint: mean survival time; dose: 12.5 mg/kg/injection; schedule: Q04DX003 (ip); vehicle: saline; higher = longer survival
Inconclusive results and toxic doses are left out.
Answer each item with its documented T/C.

Reported T/C of `CCN(CC)CCOc1ccc(NC(=O)c2ccccc2)cc1` : 101 % of control

Input `C[N+](C)(C)Cc1ccccc1` . Output T/C: 104 % of control

Reported T/C of `CCCCCCCCCCNC(=O)C[n+]1cccc(C(=O)N(C)C)c1` : 95 % of control

Reported T/C ( `Cc1cc(=O)[nH]c(=S)[nH]1.[Pd]` ) = 105 % of control

Field T/C (entry `CN(C)Cc1[c-]c(CN(C)C)ccc1.[Br][Pt]` ) reads 97 % of control

Record summary for CC(=O)OCC1OC(OC(C)=O)C([NH-])C(OC(C)=O)C1OC(C)=O.CC(=O)OCC1OC(OC(C)=O)C([NH-])C(OC(C)=O)C1OC(C)=O.[Cl][Pt+2][Cl] (stereo unspecified) : reported T/C = 98 % of control
